Reference source: the supplement of paper PMC12042874

Experiment: amyloid nucleation score (Sup35N fusion, yeast selection) (log enrichment); library NNK2; higher = more nucleation; inactive = no reads after selection;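 also: zero at mode of non-aggregating sequences after 7 days selection at 30°C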
Readout name: amyloid nucleation score
Answers are plain numbers.

TSSWIMIRS 1.52

Quick batch: amyloid nucleation score for everything below.
1. LHCRSCGF
2. ICSSPLRIISINKLSGTYNL
3. NWVNQTS
4. TSGFSIIRVIVNYIYALETR
5. GCTSTRRLVYC
6. FCKVGFALLGVNQDVLYEMS
7. MNIYEVSKYENGY
8. RQSNPR

-0.193
2.25
-1.6
3.86
-0.622
-0.714
3
1.53

###

Experiment: amyloid nucleation score (Sup35N fusion, yeast selection) (log enrichment); library NNK1; higher = more nucleation; inactive = no reads after selection
Readout name: amyloid nucleation score
Numbers only.

MDGFERWGSYVTWSQLVMIR -0.837
GRKIDCGRLIMIAVRCNQVA 0.358
FILSCISPPYVHCFYCLMFS 0.854
CMGPYFSGMSEFRGTLSVHA -0.491
LCTRFWDTMYLSSGYFGFLC 1.03
FNRNRIGGEIVMSNNYMYHS 1.58
NSHDKVGVSILWTGRSRLVA -0.003
VTLKVFCIVEV 0.314
ECMVYDYNYWVHVYGITYCC 0.242
SRLVRSSLHMGAKTRVIQL 0.881

Quick batch: amyloid nucleation score for everything below.
1. GQTITP
2. ITCYGKCYPSRDKL
3. RQFSSTRFCREHRITGMQLG
4. NIRKEGFFRFSPSTADTTCR
5. NEFTFSYKYGRHSGRSLKRR

-0.689
1.27
0.369
0.618
2.32

Quick batch: amyloid nucleation score for everything below.
1. TCLRACVHLVNYGVDMFSDK
2. YERGNFCWTIILRFLEF
3. NRARPLVSFMILGSVSECYA
4. VSRTLAWLGMSRLNGSYGVC

1: 1.83; 2: -1.22; 3: 0.767; 4: -0.197

Quick batch: amyloid nucleation score for everything below.
1. GKISICTRISMYSQSFVWIP
2. SVHKWSSKTAMSLRTTYK

1. -0.109
2. 0.284

Quick batch: amyloid nucleation score for everything below.
1. NCWQLYLKHSVPRRIQRGYA
2. CSLLSYK
3. TMIWLVAPPPLLAMVLY

1: -0.577; 2: -1.63; 3: 0.392

Quick batch: amyloid nucleation score for everything below.
1. MLIKSIFIFSTLLYISMYD
2. SRGLRNLSSMPNWAGLP
3. ASNAARLLPDRISGSEAF
4. FKFMSLGMSWAT
5. VCRPYVRLSPGGM
6. FWEYSSRNPQSHYTVLRSKV
7. WKVVCNVPVVWFFLKRLHLL
8. LKHPDIYRKVERKVRVNMFF

0.786
0.707
0.591
1.61
-1.27
-0.509
0.498
-0.792

Consider the substance IKYLSYDVNPPLWFVYNFSF . State its measured amyloid nucleation score. 6.29

###

Experiment: amyloid nucleation score (Sup35N fusion, yeast selection) (log enrichment); library NNK3; higher = more nucleation; inactive = no reads after selection
Readout name: amyloid nucleation score

KSNVLP inactive
LTVNDDFRYKAFWVCRSMFV inactive
IYWLSTYRCIKSYSMST inactive
QTHSMGDSECYL inactive
LKYSHEHGFFSYYACWCQQL inactive
CHGCMRLLSDGLKDEWYMIF inactive
KTYEETSDTYYFQVLFTNPI inactive
LISNAQA inactive

Quick batch: amyloid nucleation score for everything below.
1. NFVGTICLCLSYYVSVNSCC
2. HWSFQTVIDYGHPKFF
3. LGYLRFVLIYQTCCQLTKSP
4. GRGTYGSNPYRGLDIYRYDG
5. SMWQQVYSLSTLF
6. WYALYSIWVKHTHLCERTVE

inactive
1.45
-0.617
inactive
inactive
inactive

###

Experiment: amyloid nucleation score (Sup35N fusion, yeast selection) (log enrichment); library NNK3; higher = more nucleation; inactive = no reads after selection
Readout name: amyloid nucleation score

Solved cases (10 shown):
RLVCCKSHPFDVRYF inactive
LWPRRADVKQASRQPDYQCV -0.727
SESMCVIVSRIIWCGKVSNV inactive
SHKFRMITIGPSSMIGALTC inactive
RRYVDRYEAIWWCFCIRKLF inactive
AEGLCCMANLWSCAGSRTYT 0.947
DMFNLNLFGLLNCLGVMEET 1.31
SYAGKGLTLQTHHDWRSGNG inactive
YAKFCVSASYGVCQKLHGQF 0.331
VHSIYSTNFVLVFIPQSSVN 1.9

Quick batch: amyloid nucleation score for everything below.
1. SALTIVVLFG
2. IRAEGQKIYDLPSFCVLIPR
3. TLNRLDSHGSFFRMNVREGV
4. GICHSSRCWGTSENGNWLRI
5. RQLMIDAQSVYKCCGQPW

[0.775, "inactive", "inactive", "inactive", "inactive"]

Consider the sequence LVGVSRRSREGDSTLSPSLG . State its measured amyloid nucleation score. inactive

###

Experiment: amyloid nucleation score (Sup35N fusion, yeast selection) (log enrichment); library NNK2; higher = more nucleation; inactive = no reads after selection
Task for the reader: assign each of the following substances its reported amyloid nucleation score.
Give bare numbers.

SLCLRRCMKNKSKQMTMVWR -0.247
NLCHSNKCLNSRFSITHWV 0.246
MKRIRLGNQVRCEAANCRGR 1.1

Quick batch: amyloid nucleation score for everything below.
1. SDLGCLRYRTKGGAVGVDGV
2. FLSCQTYRKNQADNADASSI
3. RRIVGFFANDRTLIYLVGYI

1: 0.653; 2: -0.076; 3: -0.902

Quick batch: amyloid nucleation score for everything below.
1. CVICDNYFILEAVF
2. SQIRFWSRPRDCFGFLMRYV
3. LELKFFHHPSPCFYNITQSA

1. -0.771
2. -0.852
3. 3.76

###

Experiment: amyloid nucleation score (Sup35N fusion, yeast selection) (log enrichment); library NNK1; higher = more nucleation; inactive = no reads after selection
Task for the reader: assign each of the following substances its reported amyloid nucleation score.

RMHRTDWASIHKDGRPQRRF 1.23

Quick batch: amyloid nucleation score for everything below.
1. FFVVELFVSHKLRLYRVRFG
2. SCYMHVR
3. VELGRLIPPEHETQDLRSGW
4. DEGRSTQSVVCLVMEVNSDR
5. YVVCYFDNLFLSSISLSLRA
6. TQRTAFRGR
7. INVNRG

1. 0.412
2. 0.372
3. 0.258
4. 0.411
5. 8.52
6. 0.203
7. 0.239

###

Experiment: amyloid nucleation score (Sup35N fusion, yeast selection) (log enrichment); library NNK1; higher = more nucleation; inactive = no reads after selection
Would you mind sorting the entries by amyloid nucleation score according to these classes? low bin = under -0.1, mid bin = from -0.1 up to 0.7, high bin = 0.7 and over

# count of solved cases: 8
FSYCEWRDKCCERWSFLDNQ high bin
IYVYVLSMMCPSEDR mid bin
AQFFVLSSLW mid bin
YSTLRGFNYVFLKYIVK high bin
LYFRIGYSMLIATDVGFGDL low bin
FLINGISSLCGLVVGLKFMD high bin
VCMLVHLVTFAPNS high bin
RRGSCLRFKV high bin

Field: class (amyloid nucleation score) — entry: DTLEVTFGYYDCYGMYKTIT low bin

Field: class (amyloid nucleation score) — entry: ILKRSCEVVL low bin

Field: class (amyloid nucleation score) — entry: VFLFNTAYESKNPMSKLKVC low bin

Field: class (amyloid nucleation score) — entry: YRLILVANVQMDHWES low bin

Field: class (amyloid nucleation score) — entry: VPVWFSTSISQWSNLQ low bin

Field: class (amyloid nucleation score) — entry: IWNVTPRGFDSAD low bin

Field: class (amyloid nucleation score) — entry: VYVKYP low bin

Field: class (amyloid nucleation score) — entry: YYMMTKRGFNMILCCCCRCF mid bin

Field: class (amyloid nucleation score) — entry: TNISQGRCKVECLPITSIYG mid bin

Field: class (amyloid nucleation score) — entry: TQEKMSVGYYASNSLFWSML mid bin

###

Experiment: amyloid nucleation score (Sup35N fusion, yeast selection) (log enrichment); library NNK2; higher = more nucleation; inactive = no reads after selection
Task for the reader: assign each of the following sequences its reported amyloid nucleation score.
Numbers only.

YRKSWVWVLLESASAMLIGL 0.682

Quick batch: amyloid nucleation score for everything below.
1. FNLSGWLMSSIRNNFLVPG
2. PSQAGKIMVLKNTRWNHRDC
3. EISAMVAL
4. LVFFSLDFYYRGWHRDWIAG
5. YFCERWMLSCIGGLFVNFLY
6. SVIHREIELVFILI
7. LSKYLMQYNTCRLESKS
8. CNHFMTFRWWLVEQAGSMLA

1. -1.01
2. 1.01
3. -1.06
4. -1.26
5. 0.168
6. 4.4
7. -0.336
8. 0.044

Quick batch: amyloid nucleation score for everything below.
1. PHLTMFKARYIDTFAPRS
2. SIVLMCVLMYPPIDVSSWLS
3. YFNMSLTIPNI
4. YDLSASLVFGMFVNDLRRSR
5. FFVKTLFEGSLDVSSNSTFF

1: -0.672; 2: 4.42; 3: 0.566; 4: 5.68; 5: -0.304

Quick batch: amyloid nucleation score for everything below.
1. SFPVWPVMYGGNCFSCFSLG
2. QWMVLQSDRGAEMIARA

1. 9.09
2. 1.29
